Biological target: CD28 (Homo sapiens, UniProt P10747)
Assay: Flow binding to Jurkat/IL2 reporter cells (CD28)
Set-up: host or cells: Jurkat cells expressing an IL-2-luciferase reporter
Conditions: Table E16; consensus variants; Jurkats (CD28); 33.3 nM
Protocol: Binding of selected immunomodulatory fusion proteins to cognate binding partners was assessed. […] Cells were sorted in a Bio-Rad S3 Cell Sorter (Bio-Rad Corp., USA) to >98% purity. […] For staining and analysis by flow cytometry, 100,000 cells of appropriate transfected cells were plated in 96-well round bottom plates. […] Cells were then washed twice with 150 μL/well stain buffer, fixed in 2% formaldehyde/PBS, and analyzed on Intellicyt flow cytometer (Intellicyt Corp., USA). […]
Readout Type: CD28 MFI at 33.3 nM
Give bare numbers.

Molecule	CD28 MFI at 33.3 nM
H18Y/E35D/M47L/V68M/E95V/L97Q (protein, UniProt P33681 35-288, looked up, variant H18Y E35D M47L V68M E95V L97Q) T-lymphocyte activation …: VIHVTKEVKEVATLSCGYNVSVEELAQTRIYWQKDKKMVLTMMSGDLNIWPEYKNRTIFDITNNLSIMILALRPSDEGTYECVVLKYEKDAFKRVHQAEVTLSVKADFPTPSISDFEIPTSNIRRIICSTSGGFPEPHLSWLENGEELNAINTTVSQDPETELYAVSSKLDFNMTTNHSFMCLIKYGHLRVNQTFNWNTTKQEHFPDNLLPSWAITLISVNGIFVICCLTYCFAPRCRERRRNERLRRESVRPV	2602
H18Y/E35D/M47L/Y53F/V68M/A71G (protein, UniProt P33681 35-288, looked up, variant H18Y E35D M47L Y53F V68M A71G) T-lymphocyte activation …: VIHVTKEVKEVATLSCGYNVSVEELAQTRIYWQKDKKMVLTMMSGDLNIWPEFKNRTIFDITNNLSIMILGLRPSDEGTYECVVLKYEKDAFKREHLAEVTLSVKADFPTPSISDFEIPTSNIRRIICSTSGGFPEPHLSWLENGEELNAINTTVSQDPETELYAVSSKLDFNMTTNHSFMCLIKYGHLRVNQTFNWNTTKQEHFPDNLLPSWAITLISVNGIFVICCLTYCFAPRCRERRRNERLRRESVRPV	478
H18Y/E35D/V68M/L85M/R94Q (protein, UniProt P33681 35-288, looked up, variant H18Y E35D V68M L85M R94Q) T-lymphocyte activation …: VIHVTKEVKEVATLSCGYNVSVEELAQTRIYWQKDKKMVLTMMSGDMNIWPEYKNRTIFDITNNLSIMILALRPSDEGTYECVVMKYEKDAFKQEHLAEVTLSVKADFPTPSISDFEIPTSNIRRIICSTSGGFPEPHLSWLENGEELNAINTTVSQDPETELYAVSSKLDFNMTTNHSFMCLIKYGHLRVNQTFNWNTTKQEHFPDNLLPSWAITLISVNGIFVICCLTYCFAPRCRERRRNERLRRESVRPV	962

Continue with the next molecule.
Exam item: Give its CD28 MFI at 33.3 nM value. Item: H18Y/E35D/M47I/V68M/Y87N (protein, UniProt P33681 35-288, looked up, variant H18Y E35D M47I V68M Y87N, Fc fusion) T-lymphocyte activation …: VIHVTKEVKEVATLSCGYNVSVEELAQTRIYWQKDKKMVLTMMSGDINIWPEYKNRTIFDITNNLSIMILALRPSDEGTYECVVLKNEKDAFKREHLAEVTLSVKADFPTPSISDFEIPTSNIRRIICSTSGGFPEPHLSWLENGEELNAINTTVSQDPETELYAVSSKLDFNMTTNHSFMCLIKYGHLRVNQTFNWNTTKQEHFPDNLLPSWAITLISVNGIFVICCLTYCFAPRCRERRRNERLRRESVRPV
Marked response: 1429
